Assay: Determination of compound aqueous solubility in M63 media
Type: physicochemical
Settings: in M63 media at 35 °C
readout.label: Solubility

Some solved entries appear below for comparison.
O=C1NC(=O)c2c(NCc3ccc4occc4c3)cccc21 [SB-17-109] ... Not soluble
Cc1cccc(O)c1CNc1cccc2c1C(=O)NC2=O [SB-15-171] ... Unstable
O=C1NC(=O)c2c(NCc3cc(O)c(Br)cc3O)cccc21 [SB-16-186] ... Unstable
O=C1NC(=O)c2c(NCc3cccc4c3CCO4)cccc21 [SB-17-110] ... Not soluble
Cn1ccc2ccc(CNc3cccc4c3C(=O)NC4=O)cc21 [SB-17-114] ... Not soluble

Consider O=C1NC(=O)c2c(NCc3ccc4c(c3)CCO4)cccc21 [SB-17-98] . Its measured Solubility is Not soluble

Consider O=C1NC(=O)c2c(NCc3ccc(O)cc3O)cccc21 [BN-16-69] . Its measured Solubility is Unstable

Consider O=C1NC(=O)c2c(NCc3cc(O)ccc3O)cccc21 [EB-5-93] . Its measured Solubility is Unstable

Consider O=C1NC(=O)c2c(NCc3c(O)cccc3O)cccc21 [BN-16-70] . Its measured Solubility is Unstable

Consider O=C1NC(=O)c2c(NCc3ccc4[nH]ccc4c3)cccc21 [SB-17-16] . Its measured Solubility is Not soluble
